# Tested on: Staphylococcus aureus
# ASSAY NAME: Antibacterial activity against methicillin-susceptible beta-lactamase negative Staphylococcus aureus using 5x10^7 CFU/ml high inoculum after 24 hrs by broth microdilution method
# Type: functional
MEASURED PROPERTY: MIC90 (µg/mL)
Answers are plain numbers, in µg/mL.

{"columns": ["COMPOUND", "MIC90 [µg/mL]"],
 "data": [
  ["CCOc1ccc2ccccc2c1C(=O)N[C@@H]1C(=O)N2[C@@H]1SC(C)(C)[C@@H]2C(=O)O [NAFCILLIN]", 1],
  ["Nc1nc(/C(=N/O)C(=O)N[C@@H]2C(=O)N3C(C(=O)O)=C(/C=C4\\CCN([C@@H]5CCNC5)C4=O)CS[C@H]23)ns1 [CEFTOBIPROLE]", 0.5],
  ["CC(=O)OCC1=C(C(=O)O)N2C(=O)[C@@H](NC(=O)Cc3cccs3)[C@H]2SC1 [CEPHALOTHIN]", 0.5],
  ["CO/N=C(\\C(=O)N[C@@H]1C(=O)N2C(C(=O)O)=C(CSc3nc(=O)c(O)nn3C)CS[C@H]12)c1csc(N)n1 [CEFTRIAXONE]", 4],
  ["CC1=C(C(=O)O)N2C(=O)[C@@H](NC(=O)[C@H](N)c3ccccc3)[C@H]2SC1 [CEPHALEXIN ANHYDROUS]", 4]
]}

Data request: Using the record for CO/N=C(\C(=O)N[C@@H]1C(=O)N2C(C(=O)O)=C(COC(N)=O)CS[C@H]12)c1ccco1 [CEFUROXIME] , state its measured MIC90.
Data returned: 1

====

# Tested on: Staphylococcus aureus
# ASSAY NAME: Antibacterial activity against methicillin-susceptible beta-lactamase negative Staphylococcus aureus using 5x10^5 CFU/ml standard inoculum after 24 hrs by broth microdilution method
# Type: functional
Consider the following compounds; for each one, report its MIC.
Answers are plain numbers, in µg/mL.

{"columns": ["COMPOUND", "MEASUREMENT TARGET", "UNIT NAME", "MIC"],
 "data": [
  ["CC(=O)OCC1=C(C(=O)O)N2C(=O)[C@@H](NC(=O)Cc3cccs3)[C@H]2SC1", "Staphylococcus aureus", "µg/mL", 0.3],
  ["Nc1nc(/C(=N/O)C(=O)N[C@@H]2C(=O)N3C(C(=O)O)=C(/C=C4\\CCN([C@@H]5CCNC5)C4=O)CS[C@H]23)ns1", "Staphylococcus aureus", "µg/mL", 0.3],
  ["CO/N=C(\\C(=O)N[C@@H]1C(=O)N2C(C(=O)O)=C(CSc3nc(=O)c(O)nn3C)CS[C@H]12)c1csc(N)n1", "Staphylococcus aureus", "µg/mL", 3.1],
  ["CC1=C(C(=O)O)N2C(=O)[C@@H](NC(=O)[C@H](N)c3ccccc3)[C@H]2SC1 [CEPHALEXIN ANHYDROUS]", "Staphylococcus aureus", "µg/mL", 2.5]
]}

Now look at this entry.
Data request: Using the record for CCOc1ccc2ccccc2c1C(=O)N[C@@H]1C(=O)N2[C@@H]1SC(C)(C)[C@@H]2C(=O)O , state its measured MIC.
Data returned: 0.4

====

# System: Staphylococcus aureus
# ASSAY NAME: Antibacterial activity against methicillin-susceptible beta-lactamase negative Staphylococcus aureus using 5x10^5 CFU/ml standard inoculum after 24 hrs by broth microdilution method
# Format: functional
Consider the following molecules; for each one, report its MIC90.
Answers are plain numbers, in µg/mL.

{"columns": ["MOLECULE", "RECORDED RESULT"],
 "data": [
  ["CC(=O)OCC1=C(C(=O)O)N2C(=O)[C@@H](NC(=O)Cc3cccs3)[C@H]2SC1 [CEPHALOTHIN]", 0.5],
  ["Nc1nc(/C(=N/O)C(=O)N[C@@H]2C(=O)N3C(C(=O)O)=C(/C=C4\\CCN([C@@H]5CCNC5)C4=O)CS[C@H]23)ns1 [CEFTOBIPROLE]", 0.5],
  ["CO/N=C(\\C(=O)N[C@@H]1C(=O)N2C(C(=O)O)=C(CSc3nc(=O)c(O)nn3C)CS[C@H]12)c1csc(N)n1 [CEFTRIAXONE]", 4],
  ["CCOc1ccc2ccccc2c1C(=O)N[C@@H]1C(=O)N2[C@@H]1SC(C)(C)[C@@H]2C(=O)O [NAFCILLIN]", 0.5]
]}

Data request: # assay system Staphylococcus aureus: give MIC90 of CC1=C(C(=O)O)N2C(=O)[C@@H](NC(=O)[C@H](N)c3ccccc3)[C@H]2SC1 [CEPHALEXIN ANHYDROUS]
Data returned: 4
